# Test system: NCI-H226
# TEST_PROTOCOL: NCI tumour cell line growth inhibition, 48 h
Active and inactive are the calls of the source. Cut-off read from the data, not from the text of the source: active = GI50 up to about 1.1 µM and inactive = higher.
Outcome codes: active, inactive

{"COMPOUND": "Cc1nc2c(o1)C(=O)c1ccccc1/C2=N/c1ccc(N2CCOCC2)cc1", "ANSWER_LABEL": "inactive"}
{"COMPOUND": "CN1CCc2c(sc3ncn(N)c(=N)c23)C1", "ANSWER_LABEL": "inactive"}
{"COMPOUND": "CC(C)(C)OC(=O)Cc1ccc2c(ccn2Cc2ccccc2)c1", "ANSWER_LABEL": "inactive"}
{"COMPOUND": "N#CCC(=O)N/N=C1/C(=O)N(c2ccc(Cl)cc2)C(=O)C(=O)C1c1nc2ccccc2s1 (centres undefined)", "ANSWER_LABEL": "inactive"}
{"COMPOUND": "COC(=O)NC1C(C)OC(OC2C/C=C(/C)C3C=CC4C(OC5CC(OC6CCC(OC7CC(O)C(OC8CCC(O)C(C)O8)C(C)O7)C(C)O6)C(OC(C)=O)C(C)O5)C(C)CC(C)C4C3(C)/C(O)=C3/C(=O)OC4(CC(C=O)=CC(O)C4/C=C\\2C)C3=O)CC1(C)[N+](=O)[O-] (centres undefined)", "ANSWER_LABEL": "active"}
{"COMPOUND": "COc1cc(Nc2cnc3cc(F)c(F)cc3n2)cc(OC)c1", "ANSWER_LABEL": "inactive"}
{"COMPOUND": "CN(/N=C/c1ccnc2ccccc12)c1ccc([N+](=O)[O-])cc1[N+](=O)[O-]", "ANSWER_LABEL": "inactive"}
{"COMPOUND": "C=C1C[C@]23CCC4C(C)(C)C(=O)CC[C@]4(C)C2C[C@H]1C(O)C3=O (some centres undefined)", "ANSWER_LABEL": "inactive"}
{"COMPOUND": "COC(=O)C1C=NNC1C(=O)OC (centres undefined)", "ANSWER_LABEL": "inactive"}
